Molecular target: 5-hydroxytryptamine receptor 1A (Rattus norvegicus, UniProt P19327)
Sequence (P19327 whole entry): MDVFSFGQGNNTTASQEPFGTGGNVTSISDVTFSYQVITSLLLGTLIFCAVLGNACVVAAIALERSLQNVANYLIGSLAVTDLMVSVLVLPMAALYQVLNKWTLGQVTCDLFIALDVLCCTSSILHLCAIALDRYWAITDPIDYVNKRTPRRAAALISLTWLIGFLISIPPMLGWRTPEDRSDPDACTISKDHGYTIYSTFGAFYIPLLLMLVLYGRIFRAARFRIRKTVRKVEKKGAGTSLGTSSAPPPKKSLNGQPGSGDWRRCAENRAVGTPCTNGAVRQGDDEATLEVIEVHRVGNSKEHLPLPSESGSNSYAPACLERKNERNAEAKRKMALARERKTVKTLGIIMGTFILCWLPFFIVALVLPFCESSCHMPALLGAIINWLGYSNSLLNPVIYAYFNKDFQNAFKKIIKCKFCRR
Assay: Binding affinity towards 5-hydroxytryptamine 1A receptor by displacing [3H]WB-4101 from rat hippocampus
Type: tissue-based
pKi: −log10 of the molar value.
Experimental readout: pKi

• CC(C)Oc1ccccc1N1CCN(Cc2ccc(CN3CCCCCCC3=O)n2C)CC1 = 8.77
• CC(C)Oc1ccccc1N1CCN(Cc2ccc(CN3CCCCC3=O)[nH]2)CC1 = 8.27
• CCc1ccccc1N1CCN(Cc2ccc(CN3CCCCC3=O)n2C)CC1 = 7.52
• CCC(C)Oc1ccccc1N1CCN(Cc2ccc(CN3CCCCC3=O)n2C)CC1 (stereo unspecified) = 8.74
• COc1ccccc1N1CCN(Cc2ccc(CN3CCCC3=O)n2C)CC1 = 7.76
• CN1CCN(CCCN2c3ccccc3Sc3ccc(C(F)(F)F)cc32)CC1 [TRIFLUOPERAZINE] = 6.39

====

Target: Serotonin 1 (5-HT1) receptor (Rattus norvegicus, UniProt P28564+P30940+P19327+P28565)
Assay: The compound was tested for its binding affinity towards 5-hydroxytryptamine 1 receptor by displacing [3H]5-HT radioligand in rat cerebral cortex
Format: tissue-based
Experimental readout: log10 Ki (log10 of the value in nM)

- CC(C)c1ccccc1N1CCN(Cc2ccc(CN3CCCCC3=O)n2C)CC1: 1.62
- CCC(C)Oc1ccccc1N1CCN(Cc2ccc(CN3CCCCC3=O)n2C)CC1 (stereo unspecified): 1.47
- CCOc1ccccc1N1CCN(Cc2ccc(CN3CCCC3=O)n2C)CC1: 1.88
- Cn1c(CN2CCN(c3cccc(F)c3)CC2)ccc1CN1CCCC1=O: 3.00
- COc1ccccc1N1CCN(Cc2ccc(CN3CCCC3=O)[nH]2)CC1: 2.17
- CCCc1ccccc1N1CCN(Cc2ccc(CN3CCCC3=O)n2C)CC1: 2.45

====

Target: Adrenergic receptor alpha-1 (Rattus norvegicus, UniProt P15823+P23944+P43140)
Assay: The compound was tested for its binding affinity towards Alpha-1 adrenergic receptor by displacing [3H]WB-4101 radioligand in rat cerebral cortex
Format: tissue-based
Listing: Ki of selected molecules
Experimental readout: Ki (nM)

- COc1ccccc1N1CCN(Cc2ccc(CN3CCCCCCC3=O)n2C)CC1: 23.1
- COc1ccccc1N1CCN(Cc2ccc(CN3CCCC3=O)[nH]2)CC1: 43.1
- COc1ccccc1N1CCN(Cc2ccc(CN3CCCC3=O)n2-c2ccccc2)CC1: 100
- COc1ccccc1N1CCN(Cc2ccc(CN3CCCC3=O)n2C)CC1: 44.9
- CC(C)c1ccccc1N1CCN(Cc2ccc(CN3CCCC3=O)n2C)CC1: 20
- CCc1ccccc1N1CCN(Cc2ccc(CN3CCCCC3=O)n2C)CC1: 11.3
- COc1ccccc1N1CCN(Cc2ccc(CN3CCCCCC3=O)n2C)CC1: 43.7
- CCC(C)Oc1ccccc1N1CCN(Cc2ccc(CN3CCCCC3=O)n2C)CC1 (stereo unspecified): 17.4
- Cn1c(CN2CCN(c3ccccc3)CC2)ccc1CN1CCCC1=O: 436
- CC(C)c1ccccc1N1CCN(Cc2ccc(CN3CCCCCCC3=O)n2C)CC1: 35.9

====

Target: UniProtKB P61169
Sequence (P61169 whole entry): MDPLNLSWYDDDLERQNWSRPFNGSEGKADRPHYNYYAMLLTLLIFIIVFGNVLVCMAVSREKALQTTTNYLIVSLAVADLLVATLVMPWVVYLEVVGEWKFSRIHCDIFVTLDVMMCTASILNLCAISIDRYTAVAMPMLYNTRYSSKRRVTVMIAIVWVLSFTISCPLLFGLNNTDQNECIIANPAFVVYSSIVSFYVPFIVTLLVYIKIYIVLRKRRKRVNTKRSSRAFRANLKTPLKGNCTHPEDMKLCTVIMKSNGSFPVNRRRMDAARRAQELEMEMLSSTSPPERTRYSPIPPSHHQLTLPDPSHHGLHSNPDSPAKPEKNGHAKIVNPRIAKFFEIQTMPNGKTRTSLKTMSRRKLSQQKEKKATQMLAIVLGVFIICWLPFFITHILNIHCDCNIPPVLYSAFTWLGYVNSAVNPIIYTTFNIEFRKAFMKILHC
Assay: The compound was tested for its binding affinity towards Dopamine receptor D2 by displacing [3H]spiperone radioligand in rat striatum
pKi: −log10 of the molar value.
Experimental readout: pKi

* Cc1nc2sccn2c(=O)c1CCN1CCC(=C(c2ccc(F)cc2)c2ccc(F)cc2)CC1 | 7.27

Origin of values: ChEMBL document CHEMBL1126154
